Reported growth inhibition by item:
- run description: NCI Yeast Anticancer Drug Screen. Data for the cln2 rad14 strain (AID 165);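 also: 0% = growth equal to vehicle treated cultures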
- test parameters: S. cerevisiae cln2 rad14 strain, at 50.0 µM, hits give high values
- Method: Growth inhibition of yeast strains with defined genetic alterations is measured as a screen for potential anti-cancer activity. Selected strains with alterations in DNA damage repair or cell cycle control were exposed to compounds and growth inhibition was measured relative to vehicle treated controls. The strain used in this assay is cln2 rad14
Compounds without any hit were thinned out: in the full panel of roughly 79,000, 15% have a hit.
Just the number in %, nothing appended.

Examples from the recorded data:
In [3]: df
Out[3]:
                           smiles_record  quantity_measured  observed_measurement
0       CN1CCCC1=Nc1ccc([N+](=O)[O-])cc1  growth inhibition                 -29.3
1  O=C(O)Cc1cc2cccc([N+](=O)[O-])c2[nH]1  growth inhibition                 -1.85
2         CCc1cccc(CC)c1NC(=O)c1ccccc1Cl  growth inhibition                   0.8
3              OCCOCCNc1ncnc2cc(Cl)ccc12  growth inhibition                 -14.2

Read the next record carefully.
Prompt line: Find the measured growth inhibition of Fc1ccccc1C(Nc1nc2ccccc2s1)Nc1nc2ccccc2s1 and report it.
Response line: -0.3

====

# growth inhibition values compiled below
- run description: NCI Yeast Anticancer Drug Screen. Data for the mlh1 rad18 strain (AID 175)
- test parameters: S. cerevisiae mlh1 rad18 strain growth inhibition; at 50.0 µM; hits give high values
This is part of a sample that, as a whole, favours compounds with a hit. Of some 79,000 tested, about 15% had one in any assay.
Quick reminder: number only, in %, skip the unit.

In [3]: df
Out[3]:
                                   compound  units_label  observed_measurement
0           Nc1ccn(CCOC(=O)c2ccccc2)c(=O)n1            %                  15.5
1     Cc1ccccc1-c1c(N)nc(N)nc1C(=O)Nc1nccs1            %                  -7.9
2                   CC(=O)N/N=C/c1ccc(C)cc1            %                  1.75
3    COc1coc(/C=C/C(=O)c2ccc(O)c(O)c2)cc1=O            %                 -32.5
4  COc1cc(C=O)c(-c2c(C=O)ccc3c2OCO3)c(OC)c1OC            %                  -1.5

Prompt line: For Cc1cc(=O)[nH]c2cc(NN)ccc12 , write its growth inhibition.
Response line: 8.55

Prompt line: Give recorded growth inhibition. C=CCC[P+](c1ccccc1)(c1ccccc1)c1ccccc1
Response line: 8.75

Prompt line: Quote growth inhibition reported for Nc1nc(N)nc(CCCCc2nc(N)nc(N)n2)n1 please.
Response line: -21.5

Prompt line: Answer with reported growth inhibition of Cc1cccc(NC(=O)CC(=O)N2N=C(N3c4ccccc4Sc4ccccc43)CC2c2ccccc2)c1 (stereo unspecified)
Response line: -41.8

Prompt line: Using known records, supply growth inhibition for CCOc1snc(C(Cl)(Cl)Cl)c1Cl
Response line: 8.2

====

Measured growth inhibition accompanies every entry in the list below.
- run description: NCI Yeast Anticancer Drug Screen. Data for the bub3 strain (AID 167)
- test parameters: S. cerevisiae bub3 mutant strain, at 50.0 µM, hits give high values
- Protocol: Growth inhibition of yeast strains with defined genetic alterations is measured as a screen for potential anti-cancer activity. Selected strains with alterations in DNA damage repair or cell cycle control were exposed to compounds and growth inhibition was measured relative to vehicle treated controls. The strain used in this assay is bub3
About 79,000 compounds went through this panel and 15% of them were active in at least one assay; those are over-represented in the sample as a whole.
Only the number, expressed in %, is required.

// below: answered molecules
>>> print(df.to_string())
                                   molecule  observed_measurement
0            C1CSC[C@H]2COC[C@@H](CSCCS1)S2                  9.05
1  CO[C@H]1C[C@H]2[C@@H]3CCC4=CC(=O)C=C[C@]4(C)[C@@]3(F)[C@@H](O)C[C@]2(C)[C@@]1(O)C(=O)COC(C)=O                  1.05
2    CC1=CCC(CC=O)C1(C)C (stereo not given)                 -6.65
3  Clc1ccc(-c2cc(-c3cc(-c4ccc(Cl)cc4Cl)n[nH]3)[nH]n2)c(Cl)c1                   9.9

Prompt line: Query growth inhibition for CCNC1C2(CCCCC2)NC(=O)C12CCCCC2 (stereo not given)
Response line: -7.05

====

Recorded growth inhibition, one value per entry.
- run description: NCI Yeast Anticancer Drug Screen. Data for the rad50 strain (AID 155);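 also: 0% = growth of vehicle-only cultures of the same strain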
- test parameters: S. cerevisiae rad50 strain growth inhibition; at 50.0 µM; hits give high values
The panel holds about 79,000 compounds, 15% with a hit somewhere; the sample as a whole holds those more often.
Output spec: scalar in %, unitless text.

>>> print(df.to_string())
                                   compound  observed_measurement
0            Cc1cccc(C)c1NC(=O)Nc1cccc(O)c1                  -1.4
1  NC(=O)C(Cc1ccc(O)cc1)NC(=O)c1cccnc1 (stereo not given)                  -7.3
2        COc1ccc(CNc2cc(OC)c(OC)c(OC)c2)cc1                 -49.1
3  CC(C)NC(=O)OCc1c(COC(=O)NC(C)C)c(S(=O)c2ccccc2)n2c1CCC2 (stereo not given)                  12.6

Prompt line: Return growth inhibition for the following compound: Cc1c(C(C)C(=O)O)c2ccccc2n1C (stereo not given)
Response line: 39

====

- run description: NCI Yeast Anticancer Drug Screen. Data for the mlh1 rad18 strain (AID 175)
- test parameters: S. cerevisiae mlh1 rad18 strain growth inhibition; at 50.0 µM; hits give high values
The panel holds about 79,000 compounds, 15% with a hit somewhere; the sample as a whole holds those more often.
# growth inhibition values compiled below
# number only, unit % dropped from output

>>> print(df.to_string())
                                   compound  units_label  observed_measurement
0  Cc1cc2c(cc1Cl)SC(NNC(=O)c1ccccc1)=NS2(=O)=O            %                 -38.2
1                           N#Cc1cccc(Br)c1            %                  13.1

Prompt line: Identify the reported growth inhibition for the following entry. CC1Cc2c(cc(N)nc2Br)NC1=O (stereo not drawn)
Response line: 10.1

Prompt line: Fill in growth inhibition for record O=C(CC[n+]1ccccc1)Nc1ccc(F)cc1F
Response line: 17.3

Prompt line: Could you please provide reported growth inhibition for Cc1cc(N(CCC#N)S(=O)(=O)c2ccccc2)ccc1C=Nc1ccc(C(=O)O)cc1 ? Thanks!
Response line: -6.85

Prompt line: Return reported growth inhibition. Input compound: O=C1Nc2cc(Cl)ccc2N=CC1NC(=O)C(c1ccccc1)c1ccccc1Cl (stereo not drawn)
Response line: -17.8

Prompt line: For the compound O=C(O)c1cc(Cl)c(Cl)s1 , report growth inhibition.
Response line: -1.9

Prompt line: Retrieve growth inhibition measured for O=[N+]([O-])c1ccn(O)c(=Nc2ccccc2)c1 and print it.
Response line: 20.4

Prompt line: Give the measured growth inhibition for CC1(C)CC(=O)N(Nc2ccccc2)C1=O
Response line: -13.7

Prompt line: Given the compound CCOC(=O)NNC(C)(C)C , write its reported growth inhibition.
Response line: -3.7

Prompt line: Could you please provide reported growth inhibition for CCOC1OC(C(O)CO)C(O)C(O)C1O (stereo not drawn) ? Thanks!
Response line: -0.6

Prompt line: In one line, give reported growth inhibition of the entry CC1=C(C(=O)NNC(=O)C[N+](C)(C)C)CC(C(=O)NNC(=O)C[N+](C)(C)C)=C(C)N1 .
Response line: -39.9

Prompt line: Report growth inhibition for CC(C)(C)NC(=O)NCc1cccc(Cl)c1
Response line: -3.25

====

- run description: NCI Yeast Anticancer Drug Screen. Data for the mlh1 rad18 strain (AID 175)
- test parameters: S. cerevisiae mlh1 rad18 strain growth inhibition; at 50.0 µM; hits give high values
Compounds without any hit were thinned out: in the full panel of roughly 79,000, 15% have a hit.
quantity measured: growth inhibition (%)
Express your answer in %, writing the number without its unit.

Worked cases, answers included:
In [3]: df
Out[3]:
                                   molecule  observed_measurement
0  N#CCCN(c1ccc(C=Nc2ccccc2Cl)cc1)S(=O)(=O)c1ccccc1                  16.2
1  Cc1cc(Cc2c(F)c(F)c(C(c3cc(C)no3)c3c(F)c(F)c(F)c(F)c3F)c(F)c2F)on1 (configuration not stated)                  -8.3
2  Nc1nc2nn(-c3ccc(C(=O)NC(CCC(=O)O)C(=O)O)cc3)nc2c(=O)[nH]1 (configuration not stated)                  -1.4
3          CCOC(=O)/C(=C\c1cccc(F)c1)C(C)=O                  41.5
4  O=C(CN(C(=O)OC12CC3CC(CC(C3)C1)C2)C(=O)OC12CC3CC(CC(C3)C1)C2)Oc1ccc([N+](=O)[O-])cc1                 -0.85

Prompt line: Provide only the value of recorded growth inhibition for C[C@@H]1CCC[C@H]1C(N)C(=O)O (some centres not stated)
Response line: -12.9

Prompt line: Provide one value: measured growth inhibition of CCC(/C=C\C(C)C1CCC2C3CC=C4CC(OC)CCC4(C)C3CCC12C)C(C)C (configuration not stated)
Response line: 9.05

Prompt line: Quickly give me recorded growth inhibition for CCCc1nc(N)[nH]c(=O)c1I
Response line: 0.45

Prompt line: Provide one value: measured growth inhibition of COc1ccc(CCn2nccc2C)cc1
Response line: -18.4

Prompt line: Return value of growth inhibition for input C=CCCC1(C)OC(C)C(C)O1 (configuration not stated) , no commentary.
Response line: -4.9

Prompt line: Look up and state reported growth inhibition for CN(C)c1ccc(C(=C2C=CC(=[N+](C)C)C=C2)c2c(O)c(S(=O)(=O)[O-])cc3cc(S(=O)(=O)O)ccc23)cc1
Response line: 27.1

Prompt line: Report growth inhibition for CS(=O)(=O)C(c1nc2n(c1O)/C(=N/C(=O)Nc1ccc(Cl)cc1)N=N2)c1nc2n(c1O)/C(=N/C(=O)Nc1ccc(Cl)cc1)N=N2
Response line: -1.15
